Entries annotated with measured pIC50
target: Nuclear receptor ROR-gamma (Homo sapiens, UniProt P51449); experiment: Transactivation of recombinant GAL4-DBD fused RORgammat LBD (unknown origin) expressed in HEK293T cells incubated for 18 to 24 hrs by dual-Glo luciferase assay; assay type: cell-based
Sequence (P51449 whole entry, the tested form may be a part): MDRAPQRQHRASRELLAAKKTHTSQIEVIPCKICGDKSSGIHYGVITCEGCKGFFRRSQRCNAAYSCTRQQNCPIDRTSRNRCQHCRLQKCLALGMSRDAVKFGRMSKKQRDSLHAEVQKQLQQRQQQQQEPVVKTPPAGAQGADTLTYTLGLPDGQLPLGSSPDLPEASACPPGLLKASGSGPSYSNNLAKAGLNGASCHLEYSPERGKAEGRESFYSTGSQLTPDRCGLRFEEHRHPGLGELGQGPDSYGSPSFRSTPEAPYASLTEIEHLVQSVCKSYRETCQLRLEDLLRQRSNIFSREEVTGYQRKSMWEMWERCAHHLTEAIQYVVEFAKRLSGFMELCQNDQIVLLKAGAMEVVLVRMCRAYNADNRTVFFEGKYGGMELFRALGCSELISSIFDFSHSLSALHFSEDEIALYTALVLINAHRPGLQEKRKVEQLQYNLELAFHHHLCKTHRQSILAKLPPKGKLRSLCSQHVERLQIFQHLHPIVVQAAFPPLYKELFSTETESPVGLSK
pIC50 here is simply -log10 of the concentration when that concentration is written in mol/L.

Recorded results for 2 molecules are shown here.
O=C(O)c1ccc(-n2cc(C(=O)c3c(Cl)cccc3Cl)c3cccc(Cl)c32)cc1
7.15
O=C(O)c1ccc(-n2cc(C(=O)c3c(Cl)cccc3Cl)c3cccnc32)cc1
6.98

Next, consider the following molecule.
Query block: Quick one: pIC50 for "Cc1cccc(Cl)c1C(=O)c1cn(-c2ccc(C(=O)O)cc2)c2cccc(F)c12" ?
Result block: 7.03

Hello, the source for this data is ChEMBL document CHEMBL4346735, in case you need it.
